Reference source for all entries: ChEMBL document CHEMBL2086318

System: Mycobacterium kansasii
measurement.description: Antimycobacterial activity against Mycobacterium kansasii My 6509/96 clinical isolate after 14 days by micromethod
Assay type: functional
condition.set: My 6509/96, 336 h
test.readout: MIC (µM)
The answer is to be given in µM; state only the numeric part.

Examples with answers:
COc1cc(Cl)ccc1C(=O)Nc1ccc(Br)cc1 ... 8
COc1ccc(Cl)cc1C(=O)Nc1ccc(Cl)c(Cl)c1 ... 125
COc1ccc(Cl)cc1C(=O)Nc1cccc(C(F)(F)F)c1 ... 4

Specify MIC for `COc1ccc(Cl)cc1C(=S)Nc1ccc(Br)cc1` and stop.
32

Specify MIC for `COc1ccc(Cl)cc1C(=S)Nc1cccc([N+](=O)[O-])c1` and stop.
250

Specify MIC for `COc1ccc(Cl)cc1C(=O)Nc1cccc(Br)c1` and stop.
62.5

Specify MIC for `COc1cc(Cl)ccc1C(=O)Nc1cccc(Br)c1` and stop.
125

Specify MIC for `COc1cc(Cl)ccc1C(=O)Nc1ccc(Cl)c(Cl)c1` and stop.
125

Specify MIC for `COc1cc(Cl)ccc1C(=O)Nc1cccc(Cl)c1` and stop.
62.5

Specify MIC for `COc1cc(Cl)ccc1C(=O)Nc1cccc([N+](=O)[O-])c1` and stop.
125

Specify MIC for `COc1cc(Cl)ccc1C(=S)Nc1ccc([N+](=O)[O-])cc1` and stop.
16

Specify MIC for `COc1cc(Cl)ccc1C(=S)Nc1ccc(C(F)(F)F)cc1` and stop.
32

Specify MIC for `COc1ccc(Cl)cc1C(=O)Nc1cccc(Cl)c1` and stop.
250

* * *

System: Mycobacterium tuberculosis
measurement.description: Antimycobacterial activity against Mycobacterium tuberculosis My 331/88 after 14 days by micromethod
Type: functional
condition.set: My 331/88, 336 h
# maps each entry to its MIC
State the result as a value with its unit after it.

COc1ccc(Cl)cc1C(=S)Nc1ccc(Cl)c(Cl)c1 ... 8 µM
O=C(Nc1ccc(Cl)cc1)c1cc(Cl)ccc1O ... 4 µM
COc1ccc(Cl)cc1C(=S)Nc1ccc(Br)cc1 ... 16 µM

Send back Mycobacterium tuberculosis MIC of `O=C(Nc1cccc([N+](=O)[O-])c1)c1cc(Cl)ccc1O` only.
8 µM

Send back Mycobacterium tuberculosis MIC of `O=C(Nc1ccc(Cl)cc1)c1ccc(Cl)cc1O` only.
4 µM

Send back Mycobacterium tuberculosis MIC of `O=C(Nc1ccc(C(F)(F)F)cc1)c1ccc(Cl)cc1O` only.
4 µM

Send back Mycobacterium tuberculosis MIC of `O=C(Nc1ccc(Cl)c(Cl)c1)c1cc(Cl)ccc1O` only.
4 µM

Send back Mycobacterium tuberculosis MIC of `COc1cc(Cl)ccc1C(=O)Nc1ccc(Br)cc1` only.
62.5 µM

Send back Mycobacterium tuberculosis MIC of `COc1ccc(Cl)cc1C(=S)Nc1ccc(Cl)cc1` only.
16 µM

Send back Mycobacterium tuberculosis MIC of `COc1cc(Cl)ccc1C(=S)Nc1cccc(Cl)c1` only.
4 µM

Send back Mycobacterium tuberculosis MIC of `COc1cc(Cl)ccc1C(=S)Nc1ccc(C(F)(F)F)cc1` only.
8 µM

Send back Mycobacterium tuberculosis MIC of `O=C(Nc1ccc(Br)cc1)c1cc(Cl)ccc1O` only.
8 µM

* * *

Tested on: Mycobacterium tuberculosis
measurement.description: Antimycobacterial activity against Mycobacterium tuberculosis My 331/88 after 14 days by micromethod
Assay type: functional
condition.set: My 331/88, 336 h
# maps each entry to its MIC
The answer is to be given in µM; state only the numeric part.

Specify MIC for `COc1cc(Cl)ccc1C(=S)Nc1ccc(Cl)c(Cl)c1` and stop.
2

Specify MIC for `COc1cc(Cl)ccc1C(=S)Nc1ccc([N+](=O)[O-])cc1` and stop.
8

Specify MIC for `COc1cc(Cl)ccc1C(=S)Nc1ccc(Cl)cc1` and stop.
4
